Test: chemical genetic growth profiling, strain panel (AID 1159580);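 further: tested at 20 µM; growth read once vehicle control cultures reached saturation at 30 °C; lower values mean less growth of the strain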
Settings: S. cerevisiae deletion strains, growth OD, locus YDR363W, strain ESC2
Among all 5,500 compounds or so, about 2,000 (36%) were called active. Inconclusive results (about 18%) are left out. No stated cut-off is given here; in the data, active means normalized growth mostly below about 0.91 (no sharp cut-off); inconclusive means no clear call, values can overlap the other calls; inactive means mostly above about 0.92. This is one part of the list.
Outcomes: active, inactive

- compound: "COc1ccccc1CNCCCCCCNCCCCCCCCNCCCCCCNCc1ccccc1OC"
  class.assignment: "inactive"
- compound: "CSc1nc(N)c2ncn([C@@H]3O[C@H](COP(=O)(O)OP(=O)(O)O)[C@H](O)C3O)c2n1 (stereo partly specified)"
  class.assignment: "inactive"
- compound: "COc1cccc2c1[C@@H]1CN(CCCCn3c(=O)[nH]c4c(sc5ncc(-c6ccccc6)nc54)c3=O)C[C@@H]1CO2"
  class.assignment: "inactive"
- compound: "O=c1[nH]c2ccccc2n1CCCN1CCN(C(c2ccccc2)c2ccccc2)CC1"
  class.assignment: "inactive"
- compound: "C/C=C(/C)C(=O)O[C@H]1C(C)=C2[C@H]([C@@H]1OC(=O)CCCCCCC)[C@@](C)(OC(C)=O)C[C@H](OC(=O)CCC)[C@@]1(O)[C@H]2OC(=O)[C@@]1(C)O"
  class.assignment: "inactive"
- compound: "C=CCN1CC[C@]23CCCCC2[C@H]1Cc1ccc(O)cc13 (stereo partly specified)"
  class.assignment: "inactive"
- compound: "CCCN(CCC)C1CCc2ccc(O)cc2C1 (stereo unspecified)"
  class.assignment: "inactive"
- compound: "Nc1nc2c(nc(Br)n2C2OC3COP(=O)(O)O[C@@H]3C2O)c(=O)[nH]1 (stereo partly specified)"
  class.assignment: "inactive"
- compound: "Cc1c2ccncc2c(C)c2c1[nH]c1ccccc12"
  class.assignment: "active"
- compound: "O=c1n(CCCN2CCN(c3cccc(Cl)c3)CC2)nc2ccccn12"
  class.assignment: "inactive"
- compound: "O=c1[nH]c2ccccc2n1CCCN1CCC(n2c(=O)[nH]c3cc(Cl)ccc32)CC1"
  class.assignment: "inactive"
- compound: "CN(C)c1nc(N(C)C)nc(N(C)C)n1"
  class.assignment: "inactive"
- compound: "OCCN1CCN(CCCN2c3ccccc3Sc3ccc(Cl)cc32)CC1"
  class.assignment: "inactive"
- compound: "COc1ccc(Cc2nccc3cc(OC)c(OC)cc23)cc1OC"
  class.assignment: "inactive"
- compound: "CCCN(CCC)[C@@H]1CCc2ccc(O)cc2C1"
  class.assignment: "inactive"
- compound: "O=c1ccc2ccc(O)c(O)c2o1"
  class.assignment: "inactive"
- compound: "COc1ccc(-c2ccc(N)[n+](CCCC(=O)O)n2)cc1"
  class.assignment: "inactive"
- compound: "Fc1ccc(C(c2ccc(F)cc2)N2CCN(C/C=C/c3ccccc3)CC2)cc1"
  class.assignment: "inactive"
- compound: "NC(N)=N[C@@H](CCC(=O)O)C(=O)O"
  class.assignment: "inactive"
- compound: "CC(C)(C)[C@]1(O)CCN2C[C@H]3c4ccccc4CCc4cccc(c43)[C@@H]2C1"
  class.assignment: "inactive"
- compound: "CC[C@@H]1Cc2cc(O)ccc2C2=C1c1ccc(O)cc1C[C@H]2CC"
  class.assignment: "inactive"

Cited source: PubChem BioAssay AID1159580
